System: ACHN renal
experiment description: NCI tumour cell line growth inhibition, 48 h

>  <compound>
FC(F)=C(c1ccc(-c2ccc(Cl)cc2)cc1)C(F)(F)F

>  <target or test system>
ACHN renal

>  <comparison operator>
=

>  <TGI / µM>
31.1

$$$$
>  <compound>
O=C(NCCCNCCCCNCCCNC(=O)C(F)(F)F)C(F)(F)F

>  <target or test system>
ACHN renal

>  <comparison operator>
>

>  <TGI / µM>
100

$$$$
>  <compound>
COc1cc(-c2cn(C)c(=O)c(C)c2C)cc(OC)c1CN1CC[C@H](N2CCN(c3ccc(N[C@H]4CCC(=O)NC4=O)cc3F)CC2)C(F)(F)C1

>  <target or test system>
ACHN renal

>  <comparison operator>
=

>  <TGI / µM>
28.8

$$$$
>  <compound>
CCOC(=O)C(NC(=O)c1ccc(N=NN(C)C)cc1)C(C)C (centres undefined)

>  <target or test system>
ACHN renal

>  <comparison operator>
>

>  <TGI / µM>
100

$$$$
>  <compound>
O=C(c1ccccc1)[C@H]1Nc2cnccc2C2c3ccccc3CC21 (some centres undefined)

>  <target or test system>
ACHN renal

>  <comparison operator>
=

>  <TGI / µM>
37.1

$$$$
>  <compound>
Cc1ccc(C(=O)c2[nH]c(Nc3cc(C)ccn3)c(C(=S)Nc3ccccc3)c2N)cc1

>  <target or test system>
ACHN renal

>  <comparison operator>
>

>  <TGI / µM>
100

$$$$
>  <compound>
CC1(C)[C@@H]2C[C@H]1c1cnc(-c3ccccn3)cc1[C@H]2C(O)[C@@H]1c2cc(-c3ccccn3)ncc2[C@H]2C[C@@H]1C2(C)C (some centres undefined)

>  <target or test system>
ACHN renal

>  <comparison operator>
=

>  <TGI / µM>
1.54

$$$$
>  <compound>
CNC(=O)c1cn(C[C@H](F)CCc2ccc(NC(=O)Cc3cc(OC4CC(F)(F)C4)cc(C)n3)nn2)nn1

>  <target or test system>
ACHN renal

>  <comparison operator>
>

>  <TGI / µM>
100

$$$$
>  <compound>
CN(C)CCNC(=O)Nc1c(C#N)[n+]([O-])c2cc(Cl)c(Cl)cc2[n+]1[O-]

>  <target or test system>
ACHN renal

>  <comparison operator>
>

>  <TGI / µM>
100

$$$$
